Origin of the recorded values: patent EP0908457B1

System: Oryza sativa, (L.) Tebonnet
Assay: Rice tolerance to post-transplant applications under flooded paddy conditions (Example 188), ORYSAT (Rice, Tebonnet)
Details: Rate 0.2500 kg/ha, rated three to four weeks after treatment
metric_name: herbicidal effect rating, ORYSAT (rice tolerance)
// no unit, no text: just the number

# get_value(readout= herbicidal effect rating, ORYSAT (rice tolerance), system= Oryza sativa, (L.) Tebonnet) for `COC(=O)COc1cc(C)c(C)cc1-c1nsc2ccc(-n3c(=O)cc(C(F)(F)F)n(C)c3=O)cc12`
7.0

Identify the measured herbicidal effect rating, ORYSAT (rice tolerance) of COC(=O)C(C)Oc1ccc(C)cc1-c1nsc2ccc(-n3c(=O)cc(C(F)(F)F)n(C)c3=O)cc12 (centres unmarked) for Oryza sativa, (L.) Tebonnet.
3.0

Lab note: need herbicidal effect rating, ORYSAT (rice tolerance) with Oryza sativa, (L.) Tebonnet for entry `CCc1ccc(-c2nsc3ccc(-n4c(=O)cc(C(F)(F)F)n(C)c4=O)cc23)cc1` , please look it up.
6.0

Find herbicidal effect rating, ORYSAT (rice tolerance) (Oryza sativa, (L.) Tebonnet) for the entry `COc1cc2c(cc1-c1nsc3ccc(-n4c(=O)cc(C(F)(F)F)n(C)c4=O)cc13)CCC2`
7.0

Hello, I am looking for reported herbicidal effect rating, ORYSAT (rice tolerance) with Oryza sativa, (L.) Tebonnet for `C#CCOC(=O)C(C)(C)Oc1ccc(C)cc1-c1nsc2ccc(-n3c(=O)cc(C(F)(F)F)n(C)c3=O)cc12` . Could you help?
3.0

Param readout = herbicidal effect rating, ORYSAT (rice tolerance); param system = Oryza sativa, (L.) Tebonnet; param query = `CCC(C#N)(CC)c1nsc2ccc(-n3c(=O)cc(C(F)(F)F)n(C)c3=O)cc12` ; response: value
7.0

Kindly state the measured herbicidal effect rating, ORYSAT (rice tolerance) obtained for `COc1ccc(I)cc1-c1nsc2ccc(-n3c(=O)cc(C(F)(F)F)n(C)c3=O)cc12` with Oryza sativa, (L.) Tebonnet.
2.0

Write down the reported herbicidal effect rating, ORYSAT (rice tolerance) of `COc1cc(C)c(I)cc1-c1nsc2ccc(-n3c(=O)cc(C(F)(F)F)n(C)c3=O)cc12` , test system: Oryza sativa, (L.) Tebonnet.
2.0

* * *

Assignment: determine reported herbicidal effect rating, MOOVA for the given compounds.
Tested on: Monochoria vaginalis, Presl.
Assay: Preemergence weed control under flooded paddy conditions, MOOVA (Monochoria); also: meaning of each grade not given here
Type: in vivo
Conditions: 0.2500 kg/ha; preemergence weeds, flooded paddy; rated three to four weeks after treatment
Keep the answer to the number alone.

Form: Entry = Cn1c(C(F)(F)F)cc(=O)n(-c2ccc3snc(COC(CF)CF)c3c2)c1=O [Example 207] | System = Monochoria vaginalis, Presl. | herbicidal effect rating, MOOVA = ____
7.5

State its herbicidal effect rating, MOOVA on Monochoria vaginalis, Presl.: CCOCCOCc1nsc2ccc(-n3c(=O)cc(C(F)(F)F)n(C)c3=O)cc12 [Example 200]
9.0

Checklist item: herbicidal effect rating, MOOVA tested on Monochoria vaginalis, Presl., entry COC(=O)C=CCOc1ccc(C)cc1-c1nsc2ccc(-n3c(=O)cc(C(F)(F)F)n(C)c3=O)cc12 [Example 188] , value?
9.0

Can you look up herbicidal effect rating, MOOVA on Monochoria vaginalis, Presl. for Cc1ccc(OCC(=O)OC(C)C(=O)O)c(-c2nsc3ccc(-n4c(=O)cc(C(F)(F)F)n(C)c4=O)cc23)c1 (racemic) [Example 190] ?
9.0
